Where these numbers come from: PubChem BioAssay AID274

Tested on: BDF1 mice, Lewis lung carcinoma iv, survival T/C
Assay: NCI In Vivo Anticancer Drug Screen. Data for tumor model Lewis Lung Carcinoma (intravenous) in B6D2F1 (BDF1) mice
Conditions: endpoint: median survival time; dose: 200.0 mg/kg/injection; schedule: Q01DX009 (ip); vehicle: saline with Tween-80; higher = longer survival
Toxic doses and inconclusive results are not listed.
REPORTED_METRIC: T/C

For orientation, consider the following solved cases.
Specify T/C for CCCCOCN(COCCCC)C(C)Cc1ccccc1 (stereo not drawn) , system BDF1 mice, Lewis lung carcinoma iv, survival T/C.
101 % of control

Specify T/C for O=C(CCl)N1c2ccccc2Oc2cc3ccccc3cc21 , system BDF1 mice, Lewis lung carcinoma iv, survival T/C.
116 % of control

Specify T/C for COc1ccc(C(=O)c2no[n+]([O-])c2C(=O)c2ccc(OC)cc2)cc1 , system BDF1 mice, Lewis lung carcinoma iv, survival T/C.
100 % of control

Specify T/C for CC1(C)OC1CS(=O)c1ccccc1 (stereo not drawn) , system BDF1 mice, Lewis lung carcinoma iv, survival T/C.
95 % of control

Specify T/C for CC12CC(C(=O)O)C3(O)CC(C)(C1)CC(C)(C2)C3 (stereo not drawn) (tested in a mixture with another compound) , system BDF1 mice, Lewis lung carcinoma iv, survival T/C.
99 % of control

Specify T/C for Nc1nc(N)c(N=O)c(Nc2ccc(I)cc2)n1 , system BDF1 mice, Lewis lung carcinoma iv, survival T/C.
95 % of control

Specify T/C for CC1(CO)C(O)CCC2(C)C1CCC1CC3CC12CCC3(O)CO (stereo not drawn) , system BDF1 mice, Lewis lung carcinoma iv, survival T/C.
106 % of control

***
Specify T/C for CCCC(=O)Oc1ccc(/C=N/NC(N)=S)nc1 , system BDF1 mice, Lewis lung carcinoma iv, survival T/C.
120 % of control
